System: rabbit platelet (ADP-induced aggregation)
ASSAY_SUMMARY: Platelet aggregation inhibitory effect, ADP-induced aggregation in rabbit platelet
Type: cell-based
DETAILS: Oryctolagus cuniculus, concentration of the test compound solution 10^-5 mole, read-out: Inhibition effect on ADP-induced aggregation in rabbit platelet
Respond with Fulfilled for inhibition at 10 µM values of 60% and above, Not fulfilled for values below.

{"STRUCTURE_NOTATION": "O=c1ccc2cc(OCCCc3nnnn3C3CCCCC3)ccc2[nH]1", "CAT": "Fulfilled"}
{"STRUCTURE_NOTATION": "O=C1CCc2c(cccc2OCCCc2nnnn2C2CCCCC2)N1", "CAT": "Not fulfilled"}
{"STRUCTURE_NOTATION": "C=CCn1c(=O)ccc2cc(OCCCc3nnnn3C3CCCCC3)ccc21", "CAT": "Not fulfilled"}
{"STRUCTURE_NOTATION": "O=c1ccc2cc(OCCCc3nnnn3C3CCCCC3)ccc2n1Cc1ccccc1", "CAT": "Not fulfilled"}
{"STRUCTURE_NOTATION": "CC(C)n1nnnc1CCCOc1ccc2[nH]c(=O)ccc2c1", "CAT": "Not fulfilled"}
{"STRUCTURE_NOTATION": "CC(=O)N1C(=O)CCc2cc(OCCCc3nnnn3C3CCCCC3)ccc21", "CAT": "Not fulfilled"}
{"STRUCTURE_NOTATION": "O=c1ccc2cc(OCCCc3nnnn3C3CCCCCCC3)ccc2[nH]1", "CAT": "Fulfilled"}
{"STRUCTURE_NOTATION": "Cn1c(=O)ccc2cc(OCCCc3nnnn3C3CCCCC3)ccc21", "CAT": "Not fulfilled"}
